- measured.on: yCBS (yeast cystathionine β-synthase) (Saccharomyces cerevisiae)
- Sequence (P32582 whole entry): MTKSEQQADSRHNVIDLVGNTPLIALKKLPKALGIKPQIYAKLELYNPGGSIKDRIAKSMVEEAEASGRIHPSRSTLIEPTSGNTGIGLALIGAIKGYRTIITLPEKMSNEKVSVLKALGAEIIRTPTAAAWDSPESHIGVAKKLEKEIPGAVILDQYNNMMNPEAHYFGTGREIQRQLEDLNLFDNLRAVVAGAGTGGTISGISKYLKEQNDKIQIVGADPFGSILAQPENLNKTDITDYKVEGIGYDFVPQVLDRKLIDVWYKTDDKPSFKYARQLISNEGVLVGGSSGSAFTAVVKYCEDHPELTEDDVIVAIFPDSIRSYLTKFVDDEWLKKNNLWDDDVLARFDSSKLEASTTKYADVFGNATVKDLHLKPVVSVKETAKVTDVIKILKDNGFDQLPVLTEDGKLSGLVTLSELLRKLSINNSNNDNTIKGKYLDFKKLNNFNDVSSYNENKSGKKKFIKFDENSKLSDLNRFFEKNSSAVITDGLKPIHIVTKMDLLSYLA
- procedure.text: stopped-flow, aminoacrylate formation at […] nm, hyperbolic fit of kobs
- Format: binding
reported.metric: pKd
Give only the number. pKd is defined as minus log10 of concentration in molar units.

May I ask what pKd has been recorded for N[C@@H](CO)C(=O)O [L-serine] ? 1.84
